Parameter: TGI. Scope: all listed entries.
system: LOX IMVI melanoma; experiment: NCI tumour cell line growth inhibition, 48 h

Answered cases to consult:
Nc1ncnc2c1ncn2[C@@H]1C[C@H](NO)[C@@H](O)[C@H]1O
> 100 µM
CCC1(CC)C(=O)NN(C(=O)c2ccc(Cl)cc2)C1=O
> 100 µM

Incoming: Name the recorded TGI for C=CCN1C(=O)/C(=C/c2ccc(OC)cc2)N=C1SC1OC(COC(C)=O)C(OC(C)=O)C(OC(C)=O)C1OC(C)=O (stereo not drawn) .
Outgoing: > 100 µM

----------
Parameter: TGI. Scope: all listed entries.
tested on: NCI-H460 lung; test: NCI tumour cell line growth inhibition, 48 h

COc1ccc(Nc2ncc(-c3ccccc3)o2)cc1OC
> 25 µM
CCOC(=O)C1=C(C)N(NC(=O)OC)C2(N)N(NC(=O)OC)C(C)=C(C(=O)OCC)C12C#N (centres undefined)
> 100 µM
CCOc1ccc(NC(=O)c2cc3ccccc3cc2O)cc1
> 100 µM
NC1=NCC(c2ccccn2)C1c1ccc(F)cc1 (centres undefined)
> 100 µM
O=C1C(CO)=C[C@@H](O)[C@H]2O[C@@H]12
> 100 µM

Incoming: Name the recorded TGI for `Cc1cccc(Cl)c1NC(=O)c1cccc([N+](=O)[O-])c1O` .
Outgoing: > 100 µM

Incoming: Name the recorded TGI for CN(C)CCN=C1Nc2ccccc2C(=O)N2CSCC12 (centres undefined) .
Outgoing: > 100 µM

Incoming: Name the recorded TGI for Cc1cccc(C)c1NC(=O)CCCC(=O)C(C#N)c1ccc(Cl)cc1 (centres undefined) .
Outgoing: > 100 µM

Incoming: Name the recorded TGI for `CC1(C)Cc2nnsc2C2=C1C(=O)CCS2` .
Outgoing: > 100 µM

----------
tested on: SK-MEL-5 melanoma; experiment: NCI tumour cell line growth inhibition, 48 h
Parameter: TGI. Scope: all listed entries.

CC(=O)c1sc2n(C)c(=O)c3ccccc3[n+]2c1C
> 100 µM
O=C1O/C(=C(/Cl)c2c3ccccc3cc3ccccc23)c2ccccc21
30.7 µM
CCOc1ccc(N=Nc2ccc(-c3ccc(N=Nc4c(O)ccc5cc(S(=O)(=O)O)cc(S(=O)(=O)O)c45)cc3)cc2)cc1
> 100 µM

Incoming: Name the recorded TGI for CCOC(=O)C1=C(C)N(NC(=O)OC)C2(N)N(NC(=O)OC)C(C)=C(C(=O)OCC)C12C#N (centres undefined) .
Outgoing: > 100 µM

Incoming: Name the recorded TGI for `C=C(CN(C)Cc1ccccc1)c1ccc(C(=O)Nc2ccccc2N)cc1` .
Outgoing: 14.6 µM

Incoming: Name the recorded TGI for `Cc1ccc(NC(=O)N2CCCCC2)cc1[N+](=O)[O-]` .
Outgoing: > 100 µM

Incoming: Name the recorded TGI for `CN(C)CCC(/C=C/c1ccccc1)=N\Nc1ccc(Cl)cc1` .
Outgoing: 31.5 µM

Incoming: Name the recorded TGI for `Cc1cccc2cc3cccc(C(=O)NCCN(C)C)c3nc12` .
Outgoing: 0.825 µM

Incoming: Name the recorded TGI for `Cc1ccc2nc(-c3ccc(-c4nc5ccc(C)cc5o4)c(O)c3)oc2c1` .
Outgoing: > 100 µM

Incoming: Name the recorded TGI for `Cc1ccc(S(=O)(=O)NC(=O)NCC(N)=O)cc1` .
Outgoing: > 100 µM

Incoming: Name the recorded TGI for `CCN(CC)c1ccc2cc(-c3csc(C)n3)c(=O)oc2c1` .
Outgoing: > 100 µM

Incoming: Name the recorded TGI for `N#CCCN(CCCN(C(=O)Nc1ccc(NC(=O)N(CCCN(CCC#N)C(N)=O)c2ccccc2)cc1)c1ccccc1)C(N)=O` .
Outgoing: > 100 µM

Incoming: Name the recorded TGI for `CCOc1ccc(NC(=O)c2cc3ccccc3cc2O)cc1` .
Outgoing: > 100 µM

Incoming: Name the recorded TGI for CC(=O)[O][Hg][CH2]C1(C)COC(C)([CH2][Hg][O]C(C)=O)CO1 (centres undefined) .
Outgoing: 26.5 µM

Incoming: Name the recorded TGI for `OCC#CCCCCOCC#Cc1ccccc1C#CCOCCCCC#CCO` .
Outgoing: 30.5 µM

Incoming: Name the recorded TGI for COCCNC1CCC(=O)c2[nH]c3ccccc3c21 (centres undefined) .
Outgoing: > 100 µM

Incoming: Name the recorded TGI for `Oc1ccc2ccccc2c1NCn1nc(CCCCCCCCc2nn(CNc3c(O)ccc4ccccc34)c(=S)o2)oc1=S` .
Outgoing: > 100 µM

Incoming: Name the recorded TGI for COc1cc(/C=C2\CC(C)C/C(=C\c3ccc(O)c(OC)c3)C2=O)ccc1O (centres undefined) .
Outgoing: 4.52 µM

Incoming: Name the recorded TGI for CC1CN=C(NS(=O)(=O)c2cc(C(=O)Nc3ccccc3)c(Cl)cc2S)NN1 (centres undefined) .
Outgoing: > 100 µM

Incoming: Name the recorded TGI for CC(=O)OC1CC2(O)C(CCC3(C)C(c4ccc(=O)oc4)CCC32O)C2(C)CCC(OC3OC(CO)C(O)C(O)C3O)C=C12 (centres undefined) .
Outgoing: 0.0672 µM

Incoming: Name the recorded TGI for COc1ccc(OC2OC(CO)C(O)C(O)C2O)cc1 (centres undefined) .
Outgoing: > 100 µM

Incoming: Name the recorded TGI for `CCCCCCCC(=O)NS(=O)(=O)c1ccccc1` .
Outgoing: > 100 µM

Incoming: Name the recorded TGI for CCOC(=O)C(C)c1nc2cc(C(F)(F)F)ccc2[nH]c1=O (centres undefined) .
Outgoing: > 100 µM

Incoming: Name the recorded TGI for `CN(N=O)C(=O)Nc1ccc(C(=O)O)cc1` .
Outgoing: > 100 µM

Incoming: Name the recorded TGI for `Cc1ccc(N(/C=C/C(=O)C(F)(F)F)CC(=O)c2ccc(Cl)c(Cl)c2)cc1` .
Outgoing: 19.6 µM

Incoming: Name the recorded TGI for COc1ccc(C2N3CCCCC3[C@@H]3c4[nH]c5ccccc5c4CCN23)c(OC)c1 (some centres undefined) .
Outgoing: 32.7 µM

Incoming: Name the recorded TGI for `CNC(=O)/C(=C/c1ccc(OC)cc1)c1cc(OC)c(OC)c(OC)c1` .
Outgoing: > 36.6 µM

Incoming: Name the recorded TGI for `C[C@@H]1CC[C@@H]2[C@@H]1[C@H](OC(=O)c1ccc3ccccc3c1)[C@]1(C3CCCCC3)C[C@@H](OC(=O)CO)[C@@]2(C)O1` .
Outgoing: 27.4 µM

Incoming: Name the recorded TGI for COc1cc(/C=C2\C(=O)N(c3ccc(NC(C)=O)cc3)C(c3ccccc3)S2(=O)=O)cc(OC)c1OC (centres undefined) .
Outgoing: > 100 µM

----------
test system: DMS 114 small cell lung; assay: NCI tumour cell line growth inhibition, 48 h
measurement name: TGI

CCOC(=O)C1=C(C)N(NC(=O)OC)C2(N)N(NC(=O)OC)C(C)=C(C(=O)OCC)C12C#N (stereo not given)
> 100 µM

# ---- query molecule ----
Incoming: What TGI appears in the records for this molecule with DMS 114 small cell lung? `CC(C)(C)c1cc(-c2c3nc(c(-c4cc(C(C)(C)C)cc(C(C)(C)C)c4)c4ccc([nH]4)c(-c4cc(C(C)(C)C)cc(C(C)(C)C)c4)c4nc(c(-c5cc(C(C)(C)C)cc(C(C)(C)C)c5)c5ccc2[nH]5)C=C4)C=C3)cc(C(C)(C)C)c1`
Outgoing: > 100 µM

----------
system: U251 CNS
Would you mind answering with one of these outcomes? true (1) (active), false (0) (inactive)

Below, 3 compounds whose answers are already recorded.
CC(=O)[O][Hg][CH2]C1(C)COC(C)([CH2][Hg][O]C(C)=O)CO1 (centres undefined)
false (0)
O=C(NCCNC(=O)c1ccc(F)cc1)Nc1ccc(-n2cc(-c3ccncc3)c(-c3ccc(Cl)c(O)c3)n2)cc1
true (1)
CC1=C/C(O)CC(=O)Cc2nc(co2)C(=O)N2CCC=C2C(=O)OC(C(C)C)C(C)/C=C\C(=O)NC/C=C\1 (centres undefined)
false (0)

Incoming: Recorded test call requested for `C=C(CN(C)Cc1ccccc1)c1ccc(C(=O)Nc2ccccc2N)cc1`
Outgoing: false (0)

----------
Parameter: TGI. Scope: all listed entries.
test system: OVCAR-8 ovarian; assay: NCI tumour cell line growth inhibition, 48 h

Answered cases to consult:
CNC(=O)/C(=C/c1ccc(OC)cc1)c1cc(OC)c(OC)c(OC)c1
55.3 µM
Cn1ccc2c3c(=O)cc[nH]c3ccc21
> 100 µM
N=C1N=C(N)S/C1=C\c1ccc2ncccc2c1
> 25 µM
CCOC(=O)CON=c1c2ccccc2ccc2ccccc12
> 100 µM

Incoming: Name the recorded TGI for `Clc1ccc(-c2nc(C(Cl)Cl)nc3cc(-c4ccccc4)nn23)cc1` .
Outgoing: > 50 µM

Incoming: Name the recorded TGI for `Cc1nc2ccccc2c(=O)n1/N=C(\N=Nc1ccccc1Cl)c1ccccc1` .
Outgoing: > 100 µM

----------
Please consider the recorded GI50 for 786-0 renal in what follows.

N=C1N=C(N)S/C1=C\c1ccc2ncccc2c1
> 25 µM
O=C([CH-]C(=O)c1ccccc1)c1ccccc1.[CH3-].[CH3-].[CH3-].[Sn+4]
10.2 µM

# ---- query compound ----
Incoming: Name the recorded GI50 for `C[n+]1cc2cc3c(cc2c2ccccc21)OCO3` .
Outgoing: 12.4 µM
